All values here come from patent US20230134571A1.

Target Under Test: HIV Env, isolate P1981_C5_3 (HIV)
Assay Text: cell-based or functional assay
Each entry below carries its reported IC80 (µg/ml) with constrains.
Measured Property: IC80 (µg/ml) with constrains (µg/mL)

# Binder, Measured Property, Units, Observed
measured = [
    ("ePGDM13 (antibody, V domains shown) VH: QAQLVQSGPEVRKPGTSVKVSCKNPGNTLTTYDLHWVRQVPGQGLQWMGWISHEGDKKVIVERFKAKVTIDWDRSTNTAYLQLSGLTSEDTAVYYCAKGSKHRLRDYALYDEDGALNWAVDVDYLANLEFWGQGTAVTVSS VL: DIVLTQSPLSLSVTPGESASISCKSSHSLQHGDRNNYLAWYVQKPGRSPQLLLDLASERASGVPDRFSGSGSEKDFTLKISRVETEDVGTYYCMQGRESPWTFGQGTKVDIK", "IC80 (µg/ml) with constrains", "µg/mL", 1.28),
    ("PGDM1400 (antibody, V domains shown) VH: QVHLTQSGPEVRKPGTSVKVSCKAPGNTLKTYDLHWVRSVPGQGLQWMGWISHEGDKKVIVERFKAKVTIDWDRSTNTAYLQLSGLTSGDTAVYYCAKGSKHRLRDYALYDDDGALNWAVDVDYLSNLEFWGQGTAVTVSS VL: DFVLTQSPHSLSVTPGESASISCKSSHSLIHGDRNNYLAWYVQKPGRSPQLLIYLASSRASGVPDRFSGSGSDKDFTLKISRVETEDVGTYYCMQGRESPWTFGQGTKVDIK", "IC80 (µg/ml) with constrains", "µg/mL", 75.6),
    ("ePGDM5 (antibody, V domains shown) VH: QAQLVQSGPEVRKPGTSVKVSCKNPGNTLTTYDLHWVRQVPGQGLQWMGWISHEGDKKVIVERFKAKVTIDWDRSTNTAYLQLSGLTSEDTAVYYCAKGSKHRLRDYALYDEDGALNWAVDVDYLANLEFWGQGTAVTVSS VL: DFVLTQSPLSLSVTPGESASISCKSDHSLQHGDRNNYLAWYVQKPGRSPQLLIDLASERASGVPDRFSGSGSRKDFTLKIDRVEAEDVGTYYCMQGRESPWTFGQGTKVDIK", "IC80 (µg/ml) with constrains", "µg/mL", 1.18),
    ("ePGDM9 (antibody, V domains shown) VH: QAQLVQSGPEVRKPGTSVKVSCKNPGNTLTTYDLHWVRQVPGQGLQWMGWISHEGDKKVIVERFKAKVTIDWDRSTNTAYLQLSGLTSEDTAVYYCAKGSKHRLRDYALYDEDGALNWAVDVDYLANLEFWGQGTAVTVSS VL: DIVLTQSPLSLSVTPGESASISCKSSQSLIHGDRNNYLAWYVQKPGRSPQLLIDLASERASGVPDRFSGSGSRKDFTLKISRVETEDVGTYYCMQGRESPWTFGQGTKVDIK", "IC80 (µg/ml) with constrains", "µg/mL", 0.585),
]
